Data provenance is patent US6914045B2.

- Tested on: Staphylococcus sp.
- Measurement notes: in vitro antibacterial evaluation, MIC by broth dilution
- Assay type: cell-based
- Settings: strain GC 3051; broth dilution, 18 hours at 35° C.
Numbered stars: 1 amine (or outer) side, 2 acyl side, 3 side chain; on linkers, the order of the positions; unused ones are H or OH. Square brackets hold non-standard residues; d marks the D form. Peptide text beside a SMILES is read from it. ξ: configuration not given here. X1 = N=C1NCC(C(O)C(N[*:1])C(=O)[*:2])N1C1OC(CO)C(O)C(O)C1O; ξEnduracididine(βξ-OH,4'ξ) = N=C1NCC(C(O)C(N)C(=O)O)N1; ξCha(3ξ-Me) = CC(C1CCCCC1)C(N)C(=O)O; Cha = N[CH](CC1CCCCC1)C(=O)O
Observation type: MIC Staphylococcus aureus (GC 3051)

>>> value("CC(c1ccccc1)C1NC(=O)CNC(=O)C(CO)NC(=O)C(C(O)C2CN(c3nc4ccccc4s3)C(=N)N2C2OC(CO)C(O)C(O)C2O)NC(=O)C(C(O)C2CNC(=Nc3nc4ccccc4s3)N2)NC(=O)C(Cc2ccc(OC3OC(CO)C(OC4OC(CO)C(O)C(O)C4O)C(O)C3O)cc2)NC1=O (stereo not drawn) [Example 94]")
">64 µg/mL"
>>> value("CC(c1ccccc1)C1NC(=O)CNC(=O)C(CO)NC(=O)C(C(O)C2CNC(=N)N2C2OC(CO)C(O)C(O)C2O)NC(=O)C(C(O)C2CNC(=N)N2)NC(=O)C(Cc2ccc(OC3OC(CO)C(OC4OC(CO)C(O)C5OC6(CCCCCCCCCCCC6)OC45)C(O)C3O)cc2)NC1=O (stereo not drawn) [Example 210a]")
"8 µg/mL"
>>> value("CCCCN1CC(C(O)C2NC(=O)C(C(O)C3CNC(=N)N3)NC(=O)C(Cc3ccc(OC4OC(CO)C(OC5OC6COC7(OC6C(O)C5O)C5CC6CC(C5)CC7C6)C(O)C4O)cc3)NC(=O)C(C(C)c3ccccc3)NC(=O)CNC(=O)C(CO)NC2=O)N(C2OC(CO)C(O)C(O)C2O)C1=N (stereo not drawn) [Example 224]")
"2 µg/mL"
>>> value("CC(c1ccccc1)C1NC(=O)CNC(=O)C(CO)NC(=O)C(CC2CNC(=N)N2C2OC(CO)C(O)C(O)C2O)NC(=O)C(CC2CNC(=N)N2)NC(=O)C(Cc2ccc3oc(-c4ccc5c(c4)Cc4ccccc4-5)nc3c2)NC1=O (stereo not drawn) [Example 42]")
"8 µg/mL"
>>> value("CC(C1CCCCC1)C1NC(=O)CNC(=O)C(CO)NC(=O)C(C(O)C2CNC(=N)N2C2OC(CO)C(O)C(O)C2O)NC(=O)C(C(O)C2CNC(=N)N2)NC(=O)C(CC2CCCCC2)NC1=O (stereo not drawn) [Example 53] (cyclo(G[ξCha(3ξ-Me)][Cha][ξEnduracididine(βξ-OH,4'ξ)][X1]S); configuration not given here)")
"2 µg/mL"
>>> value("CC(c1ccccc1)C1NC(=O)CNC(=O)C(CO)NC(=O)C(C(O)C2CNC(=N)N2C2OC(CO)C(O)C(O)C2O)NC(=O)C(C(O)C2CNC(=N)N2)NC(=O)C(Cc2ccc3oc(C=C(c4ccccc4)c4ccccc4)nc3c2)NC1=O (stereo not drawn) [Example 39]")
"16 µg/mL"

* * *

Measured MIC Staphylococcus aureus (GC 4542) by item
- System: Staphylococcus sp.
- Measurement notes: in vitro antibacterial evaluation, MIC by broth dilution
- Format: cell-based
- Settings: broth dilution, 18 hours at 35° C.
Observation type: MIC Staphylococcus aureus (GC 4542)

>>> value("CC(c1ccccc1)C1NC(=O)CNC(=O)C(CO)NC(=O)C(C(O)C2CNC(=N)N2C2OC(CO)C(O)C(O)C2O)NC(=O)C(C(O)C2CNC(=N)N2)NC(=O)C(Cc2ccc(OC3OC(CO)C(OC4OC5COC(c6cccc(O)c6)OC5C(O)C4O)C(O)C3O)cc2)NC1=O (stereo not shown)")
"16 µg/mL"
>>> value("CC(C)CC1OCC2OC(OC3C(CO)OC(Oc4ccc(CC5NC(=O)C(C(C)c6ccccc6)NC(=O)CNC(=O)C(CO)NC(=O)C(C(O)C6CNC(=N)N6C6OC(CO)C(O)C(O)C6O)NC(=O)C(C(O)C6CNC(=N)N6)NC5=O)cc4)C(O)C3O)C(O)C(O)C2O1 (stereo not shown)")
"1 µg/mL"
>>> value("COc1ccc2cc(COC3C(OC4C(CO)OC(Oc5ccc(CC6NC(=O)C(C(C)c7ccccc7)NC(=O)CNC(=O)C(CO)NC(=O)C(CC7CNC(=N)N7C7OC(CO)C(O)C(O)C7O)NC(=O)C(CC7CNC(=N)N7)NC6=O)cc5)C(O)C4O)OC(CO)C(O)C3O)ccc2c1 (stereo not shown) [Example 245c]")
"128 µg/mL"
>>> value("N=C1NCC(C(O)C2NC(=O)C(Cc3ccc(OC4OC(CO)C(OC5OC6COC7(OC6C(O)C5O)C5CC6CC(C5)CC7C6)C(O)C4O)cc3)NC(=O)C(CC3CCCCC3)NC(=O)CNC(=O)C(CO)NC(=O)C(C(O)C3CNC(=N)N3C3OC(CO)C(O)C(O)C3O)NC2=O)N1 (stereo not shown)")
"0.25 to 1 µg/mL"
